Hello, the source for this data is patent US20250152585A1, in case you need it.

Measured Kd of individual entries
Target: N-terminally FLAG-tagged PARP2 (amino acids 1-583) (Homo sapiens)
Construct: N-terminally FLAG-tagged PARP2 (amino acids 1-583)
Sequence (Q9UGN5 whole entry, the tested form may be a part): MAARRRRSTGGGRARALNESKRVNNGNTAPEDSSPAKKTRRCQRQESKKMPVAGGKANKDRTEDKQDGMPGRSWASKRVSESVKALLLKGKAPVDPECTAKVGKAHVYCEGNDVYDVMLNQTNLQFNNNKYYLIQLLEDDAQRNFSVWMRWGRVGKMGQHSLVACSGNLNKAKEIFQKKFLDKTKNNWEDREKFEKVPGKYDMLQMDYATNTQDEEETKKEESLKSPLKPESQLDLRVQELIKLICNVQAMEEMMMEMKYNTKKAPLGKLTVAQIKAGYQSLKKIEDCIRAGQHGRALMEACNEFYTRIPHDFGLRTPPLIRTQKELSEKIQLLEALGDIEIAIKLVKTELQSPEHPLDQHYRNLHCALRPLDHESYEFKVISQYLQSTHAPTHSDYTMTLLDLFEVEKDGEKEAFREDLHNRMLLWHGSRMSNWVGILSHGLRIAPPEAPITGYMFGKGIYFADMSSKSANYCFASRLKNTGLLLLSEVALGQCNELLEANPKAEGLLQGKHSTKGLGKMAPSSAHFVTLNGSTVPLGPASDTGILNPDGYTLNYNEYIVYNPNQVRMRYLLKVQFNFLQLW
Assay: PARP2 probe displacement HTRF assay
Assay type: binding
Settings: binned Kd, PARP2 probe displacement HTRF

Form: molecule = CNC(=O)c1ccc(N2CCC(N3CCC(c4cc5ccc(F)cc5c(=O)[nH]4)C3)CC2)c(F)n1 (single isomer, unassigned) [Compound 174a] ; Kd = 100 to 1000 nM

###

Molecular target: full length N-terminally FLAG-tagged PARP1 (Homo sapiens, UniProt P09874)
Sequence (P09874 whole entry): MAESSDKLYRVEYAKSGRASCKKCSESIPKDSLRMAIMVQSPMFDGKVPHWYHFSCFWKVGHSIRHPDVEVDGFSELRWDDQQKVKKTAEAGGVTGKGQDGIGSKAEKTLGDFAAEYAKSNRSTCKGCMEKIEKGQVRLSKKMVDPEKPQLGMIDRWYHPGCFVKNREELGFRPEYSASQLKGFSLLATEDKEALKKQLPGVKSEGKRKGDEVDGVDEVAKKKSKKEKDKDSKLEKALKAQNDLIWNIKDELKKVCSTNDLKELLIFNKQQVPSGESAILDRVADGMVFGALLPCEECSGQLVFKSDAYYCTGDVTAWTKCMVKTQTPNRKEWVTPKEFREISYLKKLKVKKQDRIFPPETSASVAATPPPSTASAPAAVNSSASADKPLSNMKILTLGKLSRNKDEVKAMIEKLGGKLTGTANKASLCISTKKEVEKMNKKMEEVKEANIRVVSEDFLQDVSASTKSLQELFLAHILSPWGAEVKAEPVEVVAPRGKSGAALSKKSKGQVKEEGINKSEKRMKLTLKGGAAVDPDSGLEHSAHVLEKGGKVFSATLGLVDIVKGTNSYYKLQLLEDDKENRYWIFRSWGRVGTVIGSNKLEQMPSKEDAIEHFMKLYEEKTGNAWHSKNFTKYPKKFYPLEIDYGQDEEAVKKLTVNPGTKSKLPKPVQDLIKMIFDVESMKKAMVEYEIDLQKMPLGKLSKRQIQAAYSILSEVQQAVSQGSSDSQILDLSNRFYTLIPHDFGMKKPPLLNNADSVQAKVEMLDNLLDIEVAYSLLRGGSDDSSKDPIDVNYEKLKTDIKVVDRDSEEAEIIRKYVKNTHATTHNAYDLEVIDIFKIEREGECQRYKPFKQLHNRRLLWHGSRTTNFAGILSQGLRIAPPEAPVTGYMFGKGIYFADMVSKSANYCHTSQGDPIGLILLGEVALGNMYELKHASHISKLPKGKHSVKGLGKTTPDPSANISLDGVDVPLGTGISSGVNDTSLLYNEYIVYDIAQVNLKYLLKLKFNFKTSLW
Assay: PARP1 probe displacement HTRF assay
Conditions: read-out: PARP1 HTRF; binned Kd, probe displacement HTRF
pKd: −log10 of the molar value.
compounds and their reported pKd

Field: example entries. Status: answers known.
COMPOUND | MEASURED_ON | pKd
CNC(=O)c1ccc(N2CCC(N3CCC(c4cc5ccc(F)cc5c(=O)[nH]4)C3)CC2)c(C#N)n1 (single isomer, unassigned) [Compound 396a] | full length N-terminally FLAG-tagged PARP1 (Homo sapiens, UniProt P09874) | > 8.00
CNC(=O)c1ccc(N2CCC(N3CCC(c4nc5c(c(=O)[nH]4)COC5)C3)CC2)cn1 (single isomer, unassigned) [Compound 272b] | full length N-terminally FLAG-tagged PARP1 (Homo sapiens, UniProt P09874) | 6.00 to 7.00

Summary for this compound, CNC(=O)c1ccc(N2CCC(N3CCC(c4cc5ncc(F)cc5c(=O)[nH]4)C3)CC2)c(F)n1 (single isomer, unassigned) [Compound 324a] : pKd is > 8.00
